# Test system: six V600E BRAF melanoma cell lines
# protocol: Screening of recombinant RTK ligands for ability to confer resistance to BRAFi (PLX4720) or MEKi (PD184352) (Table 4)
# Type: cell-based, human
# Parameters: scale not given here
# recordedConditions: SK-MEL-28, PD184352 - 1 uM, ligand 6.25 ng/ml
Provide the recorded ability of recombinant RTK ligand to confer resistance for the entries that follow.
Number only, please.

# ability of recombinant RTK ligand to confer resistance lookup, item flt-3 ligand (FL) (protein, UniProt P49771 27-235, looked up) Fms-related tyrosine kinase 3 …: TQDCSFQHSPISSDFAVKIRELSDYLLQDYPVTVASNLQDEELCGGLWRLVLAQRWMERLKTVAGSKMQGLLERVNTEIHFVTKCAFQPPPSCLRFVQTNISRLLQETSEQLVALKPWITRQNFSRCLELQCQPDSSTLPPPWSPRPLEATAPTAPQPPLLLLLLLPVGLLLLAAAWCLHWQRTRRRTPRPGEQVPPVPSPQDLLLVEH
0.98

Now the same for VEGF-C (protein, UniProt P49767 112-227, looked up) Vascular endothelial growth …: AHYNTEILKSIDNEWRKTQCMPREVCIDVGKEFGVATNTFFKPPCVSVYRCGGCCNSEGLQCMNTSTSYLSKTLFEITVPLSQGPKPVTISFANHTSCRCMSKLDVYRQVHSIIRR
0.95

Now the same for Ephrin-A4 (protein, UniProt P52798 26-170, looked up) Ephrin-A4: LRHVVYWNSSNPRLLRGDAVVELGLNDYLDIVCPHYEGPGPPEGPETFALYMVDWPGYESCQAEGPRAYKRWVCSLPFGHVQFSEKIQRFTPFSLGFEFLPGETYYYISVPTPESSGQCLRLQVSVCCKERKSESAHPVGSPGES
0.88

Now the same for BDNF (protein, UniProt P23560 19-247, looked up) Neurotrophic factor BDNF …: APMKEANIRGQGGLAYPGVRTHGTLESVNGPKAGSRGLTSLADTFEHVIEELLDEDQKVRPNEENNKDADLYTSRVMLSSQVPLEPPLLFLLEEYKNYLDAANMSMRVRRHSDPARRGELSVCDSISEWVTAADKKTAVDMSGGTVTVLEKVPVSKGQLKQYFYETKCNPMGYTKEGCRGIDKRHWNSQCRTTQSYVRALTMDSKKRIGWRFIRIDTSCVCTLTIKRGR
0.91

Now the same for GDNF (protein, UniProt P39905 78-211, looked up) Glial cell line-derived …: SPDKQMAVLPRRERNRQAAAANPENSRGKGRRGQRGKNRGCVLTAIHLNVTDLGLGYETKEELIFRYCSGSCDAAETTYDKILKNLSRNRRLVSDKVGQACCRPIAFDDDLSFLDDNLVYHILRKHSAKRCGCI
1.02
